- EXPERIMENT: Cmax in Golden Syrian hamster at 100 mg/kg, po measured upto 24 hrs by LC-MS/MS analysis
- Assay type: ADME, organism-based, Mesocricetus auratus
- PARTICULARS: in vivo
MEASURED ATTRIBUTE: Cmax (ng/mL)
// return numeric value only (unit: ng/mL, not printed)

Request: Provide one value: measured Cmax of "Cc1ccc(/C=C/c2ccc(-c3cc(C(=O)O)c4cc(F)ccc4n3)cc2)cc1"
Result: 17700
